# credit: PubChem BioAssay (NCI)

- Tested on: CAKI-1 renal
- assay name: NCI-60 one-dose screen, 48 h
- condition: 10 µM unless noted
- Protocol: Growth inhibition of the CAKI-1 human tumor cell line is measured as a screen for anti-cancer activity. Cells are grown in 96 well plates and exposed to the test compound for 48 hours. Compounds are tested at a single concentration, which is 10^-5 M for most compounds. The reported endpoint is percent growth (GI% or GIPRCNT), where numbers from 0 - 100% represent growth inhibition, and numbers from -100% - 0 represent cell death. For example, a value of 40 represents 60% growth inhibition. […]
About 83,000 compounds went through this panel and 20% of them were active in at least one assay; those are over-represented in the sample as a whole. Activity calls are given as the source filed them. The calls were made as follows: active = growth percent below 10; inactive = the rest.
Write down one outcome, taken from y = active, n = inactive

Here's what some known entries look like.
Prompt: What is the recorded call for this molecule in the test? c1ccc(Cn2cnc3ccc(-c4nc(-c5ccc6c(c5)ncn6C5CCCCC5)cn5ccnc45)cc32)cc1
Completion: n

Prompt: Please indicate how the test categorized CC(=O)O[C@@H]1C2CCC3C(CC[C@@]4(C)C3CC[C@@H]4C(C)N(C)C)[C@@]2(C)CC[C@@H]1NC(=O)C=C(C)C (stereo partly drawn) .
Completion: y

Prompt: Outcome? CCC(CC)NCC(C)(C)O
Completion: n

Prompt: # lookup: test call for COc1ccc2nc(-c3ccc(-c4noc(-c5cc(OC)c(OC)c(OC)c5)n4)cc3)[nH]c2c1
Completion: n

New cases:
Prompt: Outcome? O=C1Nc2ccccc2/C1=C\c1c(-c2ccc(F)cc2)nc2ccccn12
Completion: n

Prompt: Please state the recorded outcome for this molecule: N#C/C(=C\c1cccc(C#N)c1)c1ccccc1
Completion: n

Prompt: Hi team, can someone confirm the assay call for Cc1ccc(/C=C(/C#N)n2nnc3cccc(F)c32)cc1 ?
Completion: n

Prompt: GET /call?item= COc1ccccc1NC(=O)C1CC(c2ccc(F)cc2)=NO1 (stereo not drawn) returns the recorded outcome of this test.
Completion: n

Prompt: In this assay, the call recorded for CC(=O)O[C@H]1Cc2c([nH]c3ccccc23)[C@@H](c2ccc(Cl)cc2)N1C(=O)CCNC(C)(C)C was what?
Completion: n

Prompt: What did this assay record as the result for COc1cc(OC)cc(C(=O)C[n+]2cccc3cc[nH]c32)c1 ?
Completion: n

Prompt: What did the test return for CN1C(=O)NC(c2ccc3c(c2)OCO3)C=C1c1ccccc1 (stereo not drawn) ?
Completion: n

Prompt: How did this test come out for COc1ccc(OC)c(CCn2cncc2-c2c[nH]c3ccccc23)c1 ?
Completion: n

Prompt: Tell me the assay call for Cc1c2cc[nH]c(=O)c2c(C)c2c1[nH]c1cc(OCCN3CCN(C)CC3)ccc12 please.
Completion: n

Prompt: Identify the outcome logged in this assay for the molecule shown: C/C(=N\NC(=O)CSc1nc2ccccc2c(=O)n1Cc1ccc(S(N)(=O)=O)cc1)c1ccc(F)cc1
Completion: n

---

Record form. Attribute: growth. Fill in for each entry.
- System: RPMI-8226 leukemia
- assay name: NCI-60 one-dose screen, 48 h (100 = growth as untreated, 0 = no growth, -100 = all killed)
- condition: 10 µM unless noted
The panel holds about 83,000 compounds, 20% with a hit somewhere; the sample as a whole holds those more often.
Answers are plain numbers, in %.

Query COc1cc(/C=C\c2cc(/C=C\c3ccc(O)c(OC)c3)n(C(=O)COc3ccccc3)n2)ccc1O yields growth of -3.54

For every record below, what is its growth?
1. O=C(Cc1ccccc1)NNc1nc(Cl)nc(N2CCN(C(c3ccccc3)c3ccccc3)CC2)n1
2. CN(CCN(C)c1ccc(C(=N)N)cc1)c1ccc(C(=N)N)cc1
3. N#C/C(=C\c1ccc(C(F)(F)F)cc1)c1cc2ccccc2[nH]1
4. Nc1nc(Nc2ccccc2SSc2ccccc2Nc2nc(N)nc(-c3cccs3)n2)nc(-c2ccsc2)n1
5. N#C/C(=C\c1c(-c2ccccc2)[nH]c2ccccc12)C(=O)c1ccc(Cl)cc1

Completion:
[101, 46.8, 72, 71.9, -9.73]

For every record below, what is its growth?
1. O=S(=O)(NCCNc1nccc(-c2c(-c3cccc(O)c3)nc3occn23)n1)c1ccc(C(F)(F)F)cc1
2. COc1ccc(/C=C(\C#N)n2nc3cccc(F)c3n2)cc1
3. N#Cc1c(NC(=O)NCc2ccccc2)sc2c1CCCCC2
4. Cc1cc(C)c(S(=O)(=O)Oc2ccccc2[N+](=O)[O-])c(C)c1
5. COc1ccccc1NS(=O)(=O)c1cccc(C(=O)Nc2ccc(Br)cc2)c1
6. CC(C)(C)c1ccc(NS(=O)(=O)c2ccc3nc(NC(=O)c4cnccn4)[nH]c3c2)cc1
7. O=C1c2ccccc2CCC12OC2c1cn(-c2ccccc2)nc1-c1ccc(Cl)cc1 (stereo not given)
8. O=C(C1CCC1)N1N=C(c2ccc(-n3ccc(C(F)(F)F)n3)cc2)CC1c1ccc[nH]1 (stereo not given)

Completion:
1: 105; 2: 102; 3: 14.8; 4: 24.2; 5: 38.4; 6: 24.3; 7: 81.3; 8: 63.2

---

- Test system: HT29 colon
- assay name: NCI-60 one-dose screen, 48 h
- condition: 10 µM unless noted
Compounds without any hit were thinned out: in the full panel of roughly 83,000, 20% have a hit. The source made the active and inactive calls. Rule for the calls: active = growth percent below 10; inactive = the rest.
Field 'call' accepts active, inactive

For orientation, consider the following solved cases.
Prompt: // param item: O=C1Nc2cc(-c3cccc(O)c3)ccc2/C1=C/c1ccc[nH]1 ; yields the recorded call
Completion: inactive

Prompt: Would you mind telling me which call this test gave CCC(=O)Oc1ccc(/C(=C(\C)c2ccccc2)c2ccc(OCCN3CCCCC3)cc2)cc1 ?
Completion: active

Prompt: Query: recorded result category for CN1[C@@H]2CC[C@H]1/C(=C\c1ccccc1)C(=O)/C2=C/c1ccccc1 in this test
Completion: inactive

Prompt: Dear all, I need the recorded test outcome for CCN(Cc1ccccc1)c1ccc(C=O)cc1 , thank you.
Completion: inactive

Prompt: What did this assay record as the result for COc1ccc(C(=O)C2C(C#N)C(C#N)C3C=Cc4ccccc4N32)cc1 (stereo not given) ?
Completion: active

Prompt: Which outcome was assigned to O=C(/C=C/c1ccc[nH]1)c1ccc(-n2ccc(C(F)(F)F)n2)c(F)c1 in this test?
Completion: inactive

Prompt: Called result for CC(C)(C)c1ccc(NS(=O)(=O)c2ccc3nc(NC(=O)c4cnccn4)[nH]c3c2)cc1
Completion: inactive

Prompt: Record lookup: outcome of this test for COC(=O)c1ccc2c(c1)[n+](=O)c(C(C)=O)c(C(F)(F)F)n2[O-] ?
Completion: active

Others:
Prompt: Assay outcome for CCN(CC)c1ccc(C(=O)c2ccccc2)cc1 : what was it?
Completion: inactive

Prompt: How did this test come out for COc1ccc(CC(C)=C(c2ccc(OCCN3CCCCCC3)cc2)c2ccc(OCCN3CCCCCC3)cc2)cc1 ?
Completion: active

---

- System: NCI-H23 lung
- assay name: NCI-60 one-dose screen, 48 h
- condition: 10 µM unless noted
About 83,000 compounds went through this panel and 20% of them were active in at least one assay; those are over-represented in the sample as a whole. Calls of active or inactive are those of the source. How the source made its calls: active means growth percent below 10; inactive means the rest.
I would appreciate it if you answered using one of these outcomes: label 1 (active), label 0 (inactive)

Take a look at these entries with their results.
Prompt: Test call for this compound, please: CCCCOc1ccc(/C(C)=N/Nc2cc(C)nc3ccc(Br)cc23)cc1
Completion: label 0

Prompt: Which result was noted for this compound in the test: COC1=CC(=O)c2ccccc2C1=O
Completion: label 0

Prompt: Dear all, I need the recorded test outcome for O=C(Cn1c[n+](CC(=O)c2ccc(-c3ccccc3)cc2)c2ccccc21)Nc1cccc2cccnc12 , thank you.
Completion: label 0

Prompt: // return assay outcome for COc1cc(/C=C/C(=O)c2nc3cc(F)ccc3nc2C)cc(OC)c1OC
Completion: label 0

Prompt: What did this assay record as the result for CN(C)CCn1c2ccc(Br)cc2c2nc3ccccc3nc21 ?
Completion: label 0

New cases:
Prompt: Recorded call for Cc1ccc(NC(=O)c2cc(-c3nc4ccccc4s3)c(=O)n(NS(=O)(=O)c3ccc(Cl)cc3)c2N)cc1 ?
Completion: label 0

Prompt: Record lookup: outcome of this test for COC(=O)/C=C1\S/C(=N\NC(=O)c2cc3ccc2/C=C\c2ccc(cc2)/C=C\3)N(c2ccccc2)C1=O ?
Completion: label 0

Prompt: What did the test return for COc1cc2c(c(O)c1Cl)C(=O)c1c(O)cc(C[C@H](C)O)cc1[C@H]2[C@H]1c2cc(C[C@H](C)O)cc(O)c2C(=O)c2c1cc(OC)c(Cl)c2O ?
Completion: label 1

Prompt: Fill in: this test's call for c1ccc2cc(Cn3c(-c4cccc5ccccc45)[n+](Cc4ccc5ccccc5c4)c4c5ccccc5c5ccccc5c43)ccc2c1 is ___
Completion: label 1

Prompt: For this compound, state the assay outcome: CCCOC(=O)N[C@H]1CCc2cc(OC)c(OC)c(OC)c2-c2ccc(SC)c(=O)cc21
Completion: label 0

Prompt: Just curious, what result did COc1ccc(/C=N/NC(=O)c2cnn3c2NC(c2ccccc2)C3)cc1OC (stereo not drawn) get here?
Completion: label 0

Prompt: I'd appreciate the recorded outcome for Nc1c(C(=O)Nc2cccc3cnccc23)sc2nc3c(cc12)CN(Cc1ccccc1)CC3 from this test.
Completion: label 0

Prompt: Record lookup: outcome of this test for COc1ccc(CCn2cncc2-c2c[nH]c3ccccc23)cc1 ?
Completion: label 0

Prompt: Assay result, entry COc1ccc(Cc2cnc(NC(=O)c3ccc4c(c3)OCCO4)s2)cc1 — outcome?
Completion: label 0
